Record set: IC50 | UniProtKB P14902 | literature, multiple sources.

Recorded results for 6 molecules are shown here.
>>> obs_value("Nc1oc2c(F)nccc2c1Nc1ccc(F)c(Cl)c1")
"< 200 nM"
>>> obs_value("Nc1sc2ccccc2c1Nc1ccc2c(c1)OCO2")
"< 200 nM"
>>> obs_value("CCOc1ccc(NC(=O)N[C@H](C)[C@H]2CC[C@@H](c3ccnc4ccc(F)cc43)CC2)cc1")
"< 50 nM"
>>> obs_value("O=C(CCC1CCC(ONc2nonc2/C(=N/O)Nc2ccc(F)c(F)c2)CC1)Nc1ccc(F)cc1 (stereo not drawn)")
"28 nM"
>>> obs_value("Nc1oc2cnccc2c1Nc1cccc(C2CC2)c1")
"< 200 nM"
>>> obs_value("Cc1cc(-c2nc(C)cc3c(Nc4ccc(F)c(Cl)c4)c(N)oc23)ccn1")
"< 200 nM"

Incoming: State the recorded IC50 for this entry: Nc1sc2ccc(Br)cc2c1Nc1ccc(F)c(Cl)c1
Outgoing: < 200 nM

Incoming: State the recorded IC50 for this entry: Cc1cc(-c2nccc3c(Nc4ccc(F)c(Cl)c4)c(N)oc23)ccn1
Outgoing: < 200 nM

Incoming: State the recorded IC50 for this entry: Cc1ccc(CN(C(=O)Nc2ccc(C#CCO)cc2)C2CCCC2)o1
Outgoing: > 30000 nM
